- measurement protocol: inhibition of 3D7 malaria parasite growth – strain 3D7 (AID 2306);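 also: 0% = DMSO wells and 100% = chloroquine plus artemisinin control wells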
- condition notes: P. falciparum 3D7 erythrocytic growth, LDH absorbance, 72 h; at 2 µM; stronger effect = higher value
Listed here are compounds together with their documented growth inhibition.
Report the figure in % without appending any unit label.

Consider the reported growth inhibition for these compounds:
Input: # return recorded growth inhibition for input COc1cccc(C2C(C(=O)Nc3ccccc3)=C(C)N=c3s/c(=C\c4ccc(O)cc4)c(=O)n32)c1 (centres undefined)
Output: 97

Input: # return recorded growth inhibition for input `CCc1ccc(C2CCN(CCCCNC(=O)c3ccc(NC(=O)c4ccc(Cl)cc4)cc3)CC2)cc1`
Output: 100

Input: # return recorded growth inhibition for input `CSC1=NC(=Nc2c(C)cccc2C)C2(CCCCC2)N1c1ccccc1Cl`
Output: 95

Input: # return recorded growth inhibition for input `O=C(NCc1ccccc1)Nc1ccc(-c2cccc(-c3nc4ccc(C(F)(F)F)cc4[nH]3)c2)cc1`
Output: 97

Input: # return recorded growth inhibition for input O=C1Nc2cccc3c2C1(CCCCN1CCC(c2c(-c4ccc(F)cc4)[nH]c4ccccc24)CC1)CCC3 (centres undefined)
Output: 91

More entries:
Input: # return recorded growth inhibition for input CC(CON1C(N)=NC(N)=NC1(C)C)c1ccc(Cl)cc1Cl (centres undefined)
Output: 97

Input: # return recorded growth inhibition for input `COc1ccc2nccc([C@@H](O)CN3CCC(NC/C=C/c4cccnc4)CC3)c2c1`
Output: 100

Input: # return recorded growth inhibition for input `COC(=O)c1cccc(CNCc2cccc(-c3csc(-c4nc5ccccc5[nH]4)c3)c2)c1`
Output: 102

Input: # return recorded growth inhibition for input `CC(=O)Nc1cccc(CNCc2ccc(-c3cnc(N4CCCC(C)(C)C4)nc3)cc2)c1`
Output: 93

====

Listed here are compounds together with their documented inhibition.
- measured on: L-lactate dehydrogenase (Plasmodium falciparum (isolate CDC / Honduras))
- measurement protocol: PfLDH activity inhibition – cell lysate, 3D7 strain, counter-screen for P. falciparum growth inhibition project (AID 2304);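 also: 0% = vehicle and 100% = reference inhibitor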
- condition notes: P. falciparum 3D7 crude extract, LDH APAD/NBT absorbance; at 2 µM; stronger effect = higher value
Report the figure in % without appending any unit label.

Consider the reported inhibition for these compounds:
Input: Enter recorded inhibition with L-lactate dehydrogenase (Plasmodium falciparum (isolate CDC / Honduras)) for `COc1ccc(C2CCN(CCCNC(=O)c3ccc(NC(=O)c4ccc(Cl)cc4)cc3)CC2)c(OC)c1` here.
Output: 3

Input: Enter recorded inhibition with L-lactate dehydrogenase (Plasmodium falciparum (isolate CDC / Honduras)) for `Cc1cc(N[C@@H](Cc2ccccc2)C(=O)NCCOc2ccccc2)nc(NCC2CCCCC2)n1` here.
Output: -1

Input: Enter recorded inhibition with L-lactate dehydrogenase (Plasmodium falciparum (isolate CDC / Honduras)) for CCCCCCN(CCCCCC)CC(O)c1c(OC)ccc2ccccc12 (stereo not given) here.
Output: -1

More entries:
Input: Enter recorded inhibition with L-lactate dehydrogenase (Plasmodium falciparum (isolate CDC / Honduras)) for `Oc1ccc(CN2Cc3ccccc3OC3(CCN(Cc4c[nH]c5cnccc45)CC3)C2)cc1` here.
Output: -6

Input: Enter recorded inhibition with L-lactate dehydrogenase (Plasmodium falciparum (isolate CDC / Honduras)) for `O=C(/C=C/c1ccc(Cl)c(Cl)c1)N1CCC(CN2CCC(c3nc4ccccc4n3CCCO)CC2)CC1` here.
Output: -8

Input: Enter recorded inhibition with L-lactate dehydrogenase (Plasmodium falciparum (isolate CDC / Honduras)) for `CCc1c(CCNCCCCCCNCCc2ccc(Br)cc2)ccc(O)c1O` here.
Output: -1

Input: Enter recorded inhibition with L-lactate dehydrogenase (Plasmodium falciparum (isolate CDC / Honduras)) for CCN(CC)CCCC(C)Nc1c2ccccc2nc2c1ccc1ccccc12 (stereo not given) here.
Output: 3

Input: Enter recorded inhibition with L-lactate dehydrogenase (Plasmodium falciparum (isolate CDC / Honduras)) for `CNCCNCc1cccc(-c2cccc(-c3nc4ccc(F)cc4[nH]3)c2)c1` here.
Output: -2

Input: Enter recorded inhibition with L-lactate dehydrogenase (Plasmodium falciparum (isolate CDC / Honduras)) for `COc1nc2c(N3CCN(CCNCc4ccc5c(n4)NC(=O)CS5)CC3)ccnc2cc1F` here.
Output: -6

Input: Enter recorded inhibition with L-lactate dehydrogenase (Plasmodium falciparum (isolate CDC / Honduras)) for `CC1(C)C(=O)Nc2ccccc2N1C(=O)CN1CCN(c2ccccc2O)CC1` here.
Output: 0

====

- measurement protocol: HepG2 cytotoxicity, primary screen, cytotoxicity control for P. falciparum antimalarial project, cell-based, ATP luminescence (AID 2303);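 also: 0% = DMSO wells and 100% = digitonin-killed cells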
- condition notes: HepG2 viability, 24-48 h, at 10 µM
Active and inactive are the calls of the source.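 Rule for the calls: active = inhibition above 50%; inactive = the rest.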
// allowed return values: active, inactive

Input: What classification did `CC(C)CNCc1cccc(-c2cccc(CN(CCCN3CCN(C)CC3)C(=O)/C=C/c3ccccc3)c2)c1` end up with in this test?
Output: inactive

Input: What classification did `CC(=O)NCCNc1nccc(N2CCc3ncnc(Nc4ccc(OCc5ccccn5)c(Cl)c4)c3C2)n1` end up with in this test?
Output: inactive

Input: What classification did CCN(CC)CCCC(C)Nc1c2ccccc2nc2c1ccc1ccccc12 (centres undefined) end up with in this test?
Output: inactive

More entries:
Input: What classification did `Cc1[nH]c(C)c([N+](=O)[O-])c(=O)c1-c1ccc(Oc2ccccc2)cc1` end up with in this test?
Output: inactive

Input: What classification did c1cc(CNC2Cc3ccc(-c4cccs4)cc3C2)cc(-n2ccnc2)c1 (centres undefined) end up with in this test?
Output: inactive

Input: What classification did `Nc1nccc(-c2ccc3c(/C=C/c4ccccc4)cnc(N)c3c2)n1` end up with in this test?
Output: inactive

Input: What classification did `Oc1ccc(CCNc2nc(NCc3ccccc3-c3ccc(C(F)(F)F)cc3)nc(N3CCCNCC3)n2)cc1` end up with in this test?
Output: inactive

Input: What classification did `Cc1nc(-c2ccc(C(F)(F)F)cn2)sc1C(=O)N1CCc2cc3nccc(N4CCN5CCC[C@H]5C4)c3cc21` end up with in this test?
Output: inactive

Input: What classification did `NC(=O)c1cccc(C(=O)Nc2ccc(-c3cccc(-c4nc5ccc(C(F)(F)F)cc5[nH]4)c3)cc2)c1` end up with in this test?
Output: active

====

- measured on: L-lactate dehydrogenase (Plasmodium falciparum (isolate CDC / Honduras)) (UniProt Q27743)
- Sequence (Q27743 whole entry, looked up): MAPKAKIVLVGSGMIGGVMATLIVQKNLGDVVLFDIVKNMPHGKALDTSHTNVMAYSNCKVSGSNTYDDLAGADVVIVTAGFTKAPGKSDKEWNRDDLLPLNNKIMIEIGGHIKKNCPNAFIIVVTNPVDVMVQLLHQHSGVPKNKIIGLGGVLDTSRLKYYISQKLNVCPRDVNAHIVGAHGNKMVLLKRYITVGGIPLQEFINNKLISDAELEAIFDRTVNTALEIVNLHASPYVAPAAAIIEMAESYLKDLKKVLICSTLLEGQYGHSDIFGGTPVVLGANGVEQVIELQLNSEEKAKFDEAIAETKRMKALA
- measurement protocol: PfLDH activity inhibition – cell lysate, 3D7 strain, counter-screen for P. falciparum growth inhibition project (AID 2304);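 also: 0% = vehicle and 100% = reference inhibitor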
- condition notes: P. falciparum 3D7 crude extract, LDH APAD/NBT absorbance; at 2 µM; stronger effect = higher value
recorded metric: inhibition (%)
Report the figure in % without appending any unit label.

Consider the reported inhibition for these compounds:
Input: # return recorded inhibition for input COc1ccc2ccccc2c1CCCCN1CCN(CC(c2ccc(F)cc2)N2CCC(N3CCCC3)CC2)CC1 (stereo not given)
Output: 7

Input: # return recorded inhibition for input `O=C(Nc1ccccc1-c1nc2ccccc2s1)C(Cl)(Cl)Cl`
Output: -7

Input: # return recorded inhibition for input `O=C(Nc1ccc(-c2ccccc2)c(OCCN2CCNCC2)c1)c1ccc(-c2ccc(Cl)cc2)cc1`
Output: -8

Input: # return recorded inhibition for input `Cc1ccc(Cn2c(N3CCC(C(=O)NCc4cccs4)CC3)nc3ccccc32)cc1`
Output: -1

Input: # return recorded inhibition for input `O=C(Nc1cc(C(F)(F)F)cc(C(F)(F)F)c1)c1cc(C(F)(F)F)cc(C(F)(F)F)c1`
Output: 2

Now consider the entry below.
Input: # return recorded inhibition for input `COc1ccc2sc(CNCCCNc3cc(=O)c4ccccc4[nH]3)c(Cl)c2c1`
Output: -4

====

- measurement protocol: antimalarial activity against Dd2 strain (AID 2302);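 also: 0% = DMSO untreated growth and 100% = chloroquine plus artemisinin killed control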
- condition notes: P. falciparum Dd2 in RBCs, LDH growth readout, 72 h; at 2 µM; stronger effect = higher value
Answer False if growth inhibition is under 70%, and True if it is 70% or more.

The examples below pair each entry with its known result.
Input: Exam item: decide whether the reported growth inhibition for `Cc1ccc(S(=O)(=O)/N=C(\N)NC(N)=O)cc1` is at least 70%.
Output: False

Input: Exam item: decide whether the reported growth inhibition for `O=C(NCCCCN1CCC(c2cccc3ccccc23)CC1)c1ccc(-c2ccc(C(F)(F)F)cn2)cc1` is at least 70%.
Output: False

Input: Exam item: decide whether the reported growth inhibition for CCC(C)CN1CCN(c2ccc(NC(=O)c3cccs3)cc2)C(C)C1 (stereo not drawn) is at least 70%.
Output: True

Input: Exam item: decide whether the reported growth inhibition for `CCOc1ccc(OCC(=O)Nc2nc(-c3ccc(OC)cc3)c(C)s2)cc1` is at least 70%.
Output: True

Input: Exam item: decide whether the reported growth inhibition for `CC(C)(CN1CCCC1)CN(Cc1ccc(-c2ccc(C(F)(F)F)cc2)cc1)C(=O)Cn1c(CCc2cccc(F)c2F)nc(=O)c2ccccc21` is at least 70%.
Output: False

More entries:
Input: Exam item: decide whether the reported growth inhibition for CC(CN(C)C)C(=O)Nc1cccc(-c2ccc(-c3nc4ccc(C(F)(F)F)cc4[nH]3)cc2)c1 (stereo not drawn) is at least 70%.
Output: True

Input: Exam item: decide whether the reported growth inhibition for `Cc1noc(C)c1CN1CCCN(c2ccc3c(c2)CCN(Cc2ccc(-c4ncc[nH]4)cc2)CC3)CC1` is at least 70%.
Output: False

Input: Exam item: decide whether the reported growth inhibition for `NC1=NC2(CCCCC2)N(OCCCOc2cc(Cl)c(Cl)cc2Cl)C(N)=N1` is at least 70%.
Output: True

Input: Exam item: decide whether the reported growth inhibition for O=C(c1ccc(F)cc1)N1CCOC(CCN2CCC(c3ccccc3)CC2)(c2ccc(Cl)c(Cl)c2)C1 (stereo not drawn) is at least 70%.
Output: True

Input: Exam item: decide whether the reported growth inhibition for `CN1CCCN(c2ccnc3cc4c(cc23)N(C(=O)c2ccccc2Cl)CC4)CC1` is at least 70%.
Output: False

Input: Exam item: decide whether the reported growth inhibition for `O=c1c2ccccc2[nH]c2cc(Cl)ccc12` is at least 70%.
Output: True

Input: Exam item: decide whether the reported growth inhibition for `COc1cc2c(cc1NC(=O)CN1CCN(C(=O)c3ccco3)CC1)oc1ccccc12` is at least 70%.
Output: True

Input: Exam item: decide whether the reported growth inhibition for `O=C(NCCCCN1CCC(c2c[nH]c3ccccc23)CC1)c1sc(-c2ccc(C(F)(F)F)cc2)nc1CO` is at least 70%.
Output: False

Input: Exam item: decide whether the reported growth inhibition for `COc1c(C2CCN(CCCCNC(=O)c3ccc(-c4ccc(C(F)(F)F)cc4)c(C(=O)OC(C)C)c3)CC2)ccc2c1CCCC2` is at least 70%.
Output: False
